EXPERIMENTAL TARGET: canine TRPM8 (Canis lupus familiaris, UniProt Q1A7N1)
Sequence (Q1A7N1 1-1104): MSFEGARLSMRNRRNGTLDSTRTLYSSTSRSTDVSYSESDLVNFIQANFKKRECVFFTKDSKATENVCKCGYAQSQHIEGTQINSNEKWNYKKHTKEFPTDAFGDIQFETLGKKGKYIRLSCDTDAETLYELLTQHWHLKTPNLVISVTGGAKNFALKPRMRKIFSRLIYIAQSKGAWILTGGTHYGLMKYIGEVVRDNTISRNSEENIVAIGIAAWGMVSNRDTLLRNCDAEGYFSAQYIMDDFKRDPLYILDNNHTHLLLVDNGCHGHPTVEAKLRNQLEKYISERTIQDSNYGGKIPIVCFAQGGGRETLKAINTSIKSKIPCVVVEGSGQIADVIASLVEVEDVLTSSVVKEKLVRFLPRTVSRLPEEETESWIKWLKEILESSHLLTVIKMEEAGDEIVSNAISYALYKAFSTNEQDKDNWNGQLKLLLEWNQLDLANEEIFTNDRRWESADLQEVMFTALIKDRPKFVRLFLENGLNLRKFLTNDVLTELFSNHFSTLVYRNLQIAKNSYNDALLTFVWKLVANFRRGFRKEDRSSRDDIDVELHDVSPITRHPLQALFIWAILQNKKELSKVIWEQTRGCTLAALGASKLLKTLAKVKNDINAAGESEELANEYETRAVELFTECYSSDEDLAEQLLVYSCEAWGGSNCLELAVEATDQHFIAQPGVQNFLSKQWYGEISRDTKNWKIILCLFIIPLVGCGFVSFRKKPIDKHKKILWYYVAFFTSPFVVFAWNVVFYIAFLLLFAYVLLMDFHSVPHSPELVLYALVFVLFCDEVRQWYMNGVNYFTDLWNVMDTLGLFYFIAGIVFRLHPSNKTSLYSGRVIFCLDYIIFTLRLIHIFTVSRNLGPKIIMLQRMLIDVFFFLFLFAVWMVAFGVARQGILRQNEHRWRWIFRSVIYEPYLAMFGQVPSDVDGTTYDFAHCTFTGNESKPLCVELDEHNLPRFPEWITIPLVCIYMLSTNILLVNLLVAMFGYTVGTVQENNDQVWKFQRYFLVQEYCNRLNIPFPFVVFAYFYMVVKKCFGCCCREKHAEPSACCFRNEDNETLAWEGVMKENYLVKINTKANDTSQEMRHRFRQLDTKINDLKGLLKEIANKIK
ASSAY PROCEDURE: In Vitro Canine TRPM8 Functional Assay (Ca2+ fluorescence, icilin activation)
Format: cell-based
SETUP CONDITIONS: HEK293 cells stably expressing canine TRPM8; icilin activation; eight-point dose-response; read-out: IC50
OBSERVATION TYPE: IC50 (nM)

Example entries begin here.
>>> df
                                   molecule  unit_spec  meas_value
0  Cc1c(N(Cc2ccc(F)c(C(F)(F)F)c2)S(=O)(=O)c2ccc(C(=O)NS(C)(=O)=O)cc2)sc2ccccc12 [Compound 623]         nM           7
1  Cc1c(N(Cc2ccc(OC(F)F)cc2)S(=O)(=O)c2ccc(C(=O)O)cc2)sc2ccccc12 [Compound 490]         nM           1
2  O=S(=O)(c1cccnc1)N(Cc1ccc(F)c(C(F)(F)F)c1)c1sc2ccccc2c1Br [Compound 188]         nM        12.2
3  CCCCN(c1sc2ccccc2c1C(C)=O)S(=O)(=O)c1ccc(C(=O)OC)cc1 [Compound 339]         nM        26.2

I. CNc1ccc(S(=O)(=O)N(CCC2CC2)c2cc3ccccc3s2)cc1 [Compound 688]
II. O=S(=O)(c1ccsc1)N(Cc1ccc(F)c(C(F)(F)F)c1)c1cc2ccccc2s1 [Compound 78]
III. CCCCN(c1sc2ccccc2c1Br)S(=O)(=O)c1ccc(-c2noc(=O)[nH]2)cc1 [Compound 443]
IV. Cc1c(N(Cc2ccc(F)c(C(F)(F)F)c2)S(=O)(=O)c2cc(C(=O)O)cs2)sc2ccccc12 [Compound 527]
// ascending sort on recorded IC50 Enter labels, ranked according to the request.
IV, III, II, I
(IV: 5 nM, III: 14 nM, II: 22.5 nM, I: 60.2 nM)
